Data origin, for the record: patent US20080176952A1

Record type: Kd measurement. Applies to: sRPE65 (Bos taurus, UniProt Q28175)

Inquiry: # assay system sRPE65 (Bos taurus, UniProt Q28175): give Kd of CCCCCCCCCCCCCCCC(=O)OC/C=C(C)/C=C/C=C(C)/C=C/C1=C(C)CCCC1(C)C [retinyl palmitate]
Reply text: ~1200 nM

Inquiry: Fill in Kd for CC1=C(/C=C/C(C)=C/C=C/C(C)=C/CO)C(C)(C)CCC1 [all-trans-retinol, reference compound] tested with sRPE65 (Bos taurus, UniProt Q28175).
Sequence (Q28175 whole entry): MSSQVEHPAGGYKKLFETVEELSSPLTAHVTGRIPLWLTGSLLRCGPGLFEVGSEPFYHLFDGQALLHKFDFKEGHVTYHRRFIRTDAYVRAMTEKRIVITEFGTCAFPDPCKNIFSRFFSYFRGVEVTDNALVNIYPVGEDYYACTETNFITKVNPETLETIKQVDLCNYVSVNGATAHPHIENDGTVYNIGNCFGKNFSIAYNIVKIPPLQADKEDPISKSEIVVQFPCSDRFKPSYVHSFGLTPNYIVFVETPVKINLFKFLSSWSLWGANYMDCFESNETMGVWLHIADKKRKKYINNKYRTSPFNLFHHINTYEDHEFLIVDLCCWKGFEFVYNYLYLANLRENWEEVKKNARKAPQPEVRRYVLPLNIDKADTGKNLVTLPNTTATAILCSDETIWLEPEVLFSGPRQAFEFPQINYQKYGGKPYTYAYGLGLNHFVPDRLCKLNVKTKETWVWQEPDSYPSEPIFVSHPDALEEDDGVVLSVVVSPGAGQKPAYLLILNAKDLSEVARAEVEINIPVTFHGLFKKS
Reply text: ~65 nM

----------
target_or_system: mouse RPE65
assay_name: Constants of affinity (Kds) for mouse RPE65
test_parameters: read-out: Kd (constant of affinity) for mouse RPE65
reported_metric: Kd (µM)

Known Kd results, listed for orientation:
CCCCCCCCCCCCCCCC(=O)OC/C=C(C)/C=C/C=C(C)/C=C/C1=C(C)CCCC1(C)C [retinyl palmitate]; 0.047
CCCCCCCCCCCCCCCC(=O)CC/C=C(C)/C=C/C=C(C)/C=C/C1=C(C)CCCC1(C)C [4f]; 0.064
CC(=O)OC/C=C(C)/C=C/C=C(C)/C=C/C1=C(C)CCCC1(C)C [retinyl acetate]; 1.3

A. CCCCCCCCCCCCCCCCOC/C=C(C)/C=C/C=C(C)/C=C/C1=C(C)CCCC1(C)C [palmityl retinyl ether]
B. CCCCCCCCCCCCCCCC(=O)NC/C=C(C)/C=C/C=C(C)/C=C/C1=C(C)CCCC1(C)C [4e]
Inquiry: Higher Kd: A or B ? In your reply, give the label of the chosen option.
Reply text: B
(B: 0.04 µM, A: 0.021 µM)

----------
target_or_system: RPE65 (Bos taurus, UniProt Q28175)
Construct: Frozen bovine eyecups devoid of retinas were purchased from W. L. Lawson Co; tissue W. L. Lawson Co; host or cells: bovine eyecups (retinal pigment epithelium)
Sequence (Q28175 whole entry): as above
assay_name: Fluorescence binding assay of retinoids and analogs to purified RPE65
Set-up: species or system bovine
test_parameters: antagonist of RPE65; read-out: KD
pKd: −log10 of the molar value.
reported_metric: pKd

Below, each entry is followed by its recorded pKd result.
CC1=C(/C=C/C(C)=C/C=C/C(C)=C/C(=O)N(C)C)C(C)(C)CCC1 [N,N-dimethyl retinimide]; 5.45
CCCCCCCCCCCCCCCCNC(=O)/C=C(C)/C=C/C=C(C)/C=C/C1=C(C)CCCC1(C)C [N-palmityl retinimide]; 7.40
CCCCCCCCCCCCCCCC(=O)OC/C=C(\C)CCC=C(C)C [geranyl palmitate]; 6.52
CCCCCCCCCCCCCCCCOC/C=C(\C)CC/C=C(\C)CC/C=C(\C)CCC=C(C)C; 6.71
CCCCCCCCCCCCCCCC(=O)CC/C=C(C)/C=C/C=C(C)/C=C/C1=C(C)CCCC1(C)C; 7.19

1. CCCCCCCCCCCCCCCCOC/C=C(C)/C=C/C1=C(C)CCCC1(C)C
2. CCCCCCCCCCCCCCCCOC/C=C(\C)CCC=C(C)C
3. CC1=C(/C=C/C(C)=C/C=C/C(C)=C/C(=O)NC(C)(C)C)C(C)(C)CCC1 [N-tert-butyl retinimide]
Inquiry: Sort the molecules on pKd; start with the lowest figure. Order the labels as requested and list them.
Reply text: 3, 2, 1

a. CCCCCCCCCCCCCCCC(=O)OC/C=C(\C)CC/C=C(\C)CC/C=C(\C)CCC=C(C)C [geranylgeranyl palmitate]
b. CCCCCCCCCCCCCCCC(=O)CC/C=C(\C)CC/C=C(\C)CCC=C(C)C
Inquiry: Name the one with the greater pKd value, either a or b as given. Refer to your chosen item by its label in the answer.
Reply text: b

----------
target_or_system: RPE65 (Bos taurus, UniProt Q28175)
Construct: Frozen bovine eyecups devoid of retinas were purchased from W. L. Lawson Co; tissue W. L. Lawson Co; host or cells: bovine eyecups (retinal pigment epithelium)
assay_name: Fluorescence binding assay of retinoids and analogs to purified RPE65
Set-up: species or system bovine
test_parameters: antagonist of RPE65; read-out: KD
pKd: −log10 of the molar value.
reported_metric: pKd

Previously resolved entries follow.
CC(=O)CC/C=C(C)/C=C/C=C(C)/C=C/C1=C(C)CCCC1(C)C; 5.42
CC(=O)OC/C=C(C)/C=C/C=C(C)/C=C/C1=C(C)CCCC1(C)C [retinyl acetate]; 5.89
CCCCCCCCCCCCCCCCOC/C=C(C)/C=C/C=C(C)/C=C/C1=C(C)CCCC1(C)C; 7.60
CCCCCCCCCCCCCCCC(=O)NC/C=C(\C)CC/C=C(\C)CCC=C(C)C; 7.25
CCCCCCCCCCCCCCCC(=O)OC/C=C(\C)CC/C=C(\C)CCC=C(C)C [farnesyl palmitate]; 7.20
CC(=O)/C=C(C)/C=C/C=C(C)/C=C/C1=C(C)CCCC1(C)C; 5.42

I. CCCCCCCCCC(=O)CC/C=C(\C)CC/C=C(\C)CCC=C(C)C
II. CCCCCCOC/C=C(C)/C=C/C=C(C)/C=C/C1=C(C)CCCC1(C)C
Inquiry: Lowest pKd? choose I or II Your answer should be the label attached to the chosen record.
Reply text: II

a. CCCCCCCCCCCCCCCCOC/C=C(\C)CC/C=C(\C)CCC=C(C)C
b. CCCCCCCCCCCCCCCCC(O)/C=C(C)/C=C/C=C(C)/C=C/C1=C(C)CCCC1(C)C (stereo not shown)
Inquiry: Identify the entry with the larger pKd. Options: a and b Refer to your chosen item by its label in the answer.
Reply text: a

----------
target_or_system: RPE65 (Bos taurus)
Construct: Frozen bovine eyecups devoid of retinas were purchased from W. L. Lawson Co; tissue W. L. Lawson Co; host or cells: bovine eyecups (retinal pigment epithelium)
assay_name: Fluorescence binding assay of retinoids and analogs to purified RPE65
Set-up: species or system bovine
test_parameters: antagonist of RPE65; read-out: KD
pKd: −log10 of the molar value.
reported_metric: pKd

Some entries whose results are on file:
CCCCCCCCCCCCCCCC(=O)OC/C=C(C)/C=C/C=C(C)/C=C/C1=C(C)CCCC1(C)C [retinyl palmitate]; 7.33
COCCOCCOC/C=C(C)/C=C/C=C(C)/C=C/C1=C(C)CCCC1(C)C; 6.31
COC/C=C(C)/C=C/C=C(C)/C=C/C1=C(C)CCCC1(C)C; 7.62
CCCCCCCCCCCCCCCC(=O)OC/C=C(C)/C=C/C1=C(C)CCCC1(C)C [β-ionoacetyl palmitate]; 6.82

P. CCCCCCCCCCCCCCCCC(=O)/C=C(C)/C=C/C=C(C)/C=C/C1=C(C)CCCC1(C)C
Q. CCCCCCCCCC(=O)CC/C=C(C)/C=C/C=C(C)/C=C/C1=C(C)CCCC1(C)C
Inquiry: Lab log: flag the item ( P or Q ) with the smaller pKd figure. Give the label under which the chosen entry appears.
Reply text: Q
